testProtocol: Activity relative to erythromycin A
measureName: Relative activity

Known results for molecules:
smilesText	Relative activity
CC[C@H]1OC(=O)[C@H](C)[C@@H](O[C@H]2C[C@@](C)(OC)[C@@H](O)[C@H](C)O2)[C@H](C)[C@@H](O[C@@H]2O[C@H](C)C[C@H](N(C)CC)[C@H]2O)[C@@]2(C)CC(C)=C(O2)[C@H](C)[C@@H](O)[C@]1(C)O	2.6
CC[C@H]1OC(=O)[C@H](C)[C@@H](O[C@H]2C[C@@](C)(OC)[C@@H](O)[C@H](C)O2)[C@H](C)[C@@H](O[C@@H]2O[C@H](C)C[C@H](N(C)C)[C@H]2O)[C@@]2(C)CC(C)=C(O2)[C@H](C)[C@@H](O)[C@]1(C)O	2.55
CC[C@H]1OC(=O)[C@H](C)[C@@H](O[C@H]2C[C@@](C)(OC)[C@@H](O)[C@H](C)O2)[C@H](C)[C@@H](O[C@@H]2O[C@H](C)C[C@H](NC)[C@H]2O)[C@@]2(C)CC(C)=C(O2)[C@H](C)[C@@H](O)[C@]1(C)O	1.3

(a) CC[C@H]1OC(=O)[C@H](C)[C@@H](O[C@H]2C[C@@](C)(OC)C[C@H](C)O2)[C@H](C)[C@@H](O[C@@H]2O[C@H](C)C[C@H](N(C)CC)[C@H]2O)[C@@]2(C)CC(C)=C(O2)[C@H](C)[C@@H](O)[C@]1(C)O
(b) CC[C@H]1OC(=O)[C@H](C)[C@@H](O[C@H]2C[C@@](C)(OC)[C@@H](O)[C@H](C)O2)[C@H](C)[C@@H](O[C@@H]2O[C@H](C)C[C@H](N(C)C)[C@H]2O)[C@@]2(C)CC(C)=C(O2)[C@H](C)[C@@H](O)[C@H]1C
IN: Could you check which of a and b has a smaller value for Relative activity? Refer to your chosen item by its label in the answer.
OUT: b

(P) CC[C@H]1OC(=O)[C@H](C)[C@@H](O[C@H]2C[C@@](C)(OC)C[C@H](C)O2)[C@H](C)[C@@H](O[C@@H]2O[C@H](C)C[C@H](N(C)C)[C@H]2O)[C@@]2(C)CC(C)=C(O2)[C@H](C)[C@@H](O)[C@H]1C
(Q) CC[C@H]1OC(=O)[C@H](C)[C@@H](O[C@H]2C[C@@](C)(OC)C[C@H](C)O2)[C@H](C)[C@@H](O[C@@H]2O[C@H](C)C[C@H](N(C)C)[C@H]2O)[C@@]2(C)CC(C)=C(O2)[C@H](C)[C@@H](O)[C@]1(C)O
IN: Which entry shows the lesser value of Relative activity here, P or Q ? State the label of the item chosen.
OUT: Q
(Q: 2.56, P: 5.41)
